What cytotoxicity at 70.5 h was measured for each of the following?
assay: Human HepG2 cell viability assay in 384 well format; type: toxicity, cell-based; parameters: dose 125 nL, time 70.5 hour; concentration not given beside the values; details: HepG2 cells, read-out: Inhibition
Unit % implied. Number only.

Determine its reported cytotoxicity at 70.5 h: Cc1ccc(CNc2ccc(N3CCC(CO)CC3)cn2)o1 -2.34

Determine its reported cytotoxicity at 70.5 h: NC1CCN(C2CCN(c3ccc(-c4ccco4)cc3)CC2)CC1 -12

Determine its reported cytotoxicity at 70.5 h: O=C(NCc1ccccn1)c1cnc(C2CCCN2)cn1 (configuration not stated) -4.69

Determine its reported cytotoxicity at 70.5 h: O=C(CCNC(=O)c1ccoc1)Nc1cc(F)cc(F)c1 -10.4

Determine its reported cytotoxicity at 70.5 h: CCCc1nc(CN2CCN(Cc3noc(CCC)n3)CC2)no1 11.4

Determine its reported cytotoxicity at 70.5 h: Cc1nc(C)n(CC2CCCN(CCC(=O)N3CCOCC3)C2)n1 (configuration not stated) -4.61

Determine its reported cytotoxicity at 70.5 h: COCCO[C@H]1CCN(C(=O)NC2CC2)[C@H]1Cc1cnn(C)c1 -123

Determine its reported cytotoxicity at 70.5 h: O=S(=O)(CCNC1CCc2ncnn2C1)c1ccc(Cl)cc1 (configuration not stated) -1.07

Determine its reported cytotoxicity at 70.5 h: c1cnnc(N2CCCC2CNCc2cc[nH]n2)c1 (configuration not stated) 11

Determine its reported cytotoxicity at 70.5 h: Cc1cccc(CN2C[C@@H]3COC[C@]3(CNC(=O)c3ccccc3)C2)n1 -12.2

Determine its reported cytotoxicity at 70.5 h: NC(=O)C1(Cc2ccccc2-c2cncnc2)CCCNC1 (configuration not stated) -10.3

Determine its reported cytotoxicity at 70.5 h: CC(=O)N1CCCN(C(=O)NCCCn2cncn2)CC1 -0.358

====

What cytotoxicity at 70.5 h was measured for each of the following?
experiment: Human HepG2 cell viability assay in 384 well format; assay type: toxicity, cell-based; design: dose 125 nL, time 70.5 hour; concentration not given beside the values; conditions: HepG2 cells, read-out: Inhibition
Unit % implied. Number only.

Determine its reported cytotoxicity at 70.5 h: Cn1c(Cn2ccnc2)nnc1C1CCN(C(=O)c2ccncc2)CC1 -5.75

Determine its reported cytotoxicity at 70.5 h: NC(CC1CCCC1)c1ccccc1 (centres undefined) 0.203

Determine its reported cytotoxicity at 70.5 h: Cc1nc(NC(=O)c2c3c(nn2C2CCS(=O)(=O)C2)CCC3)sc1C (centres undefined) 16.2

Determine its reported cytotoxicity at 70.5 h: CCn1cc(CN2CCCN(C(=O)CCc3ccncc3)CC2)cn1 25.1

Determine its reported cytotoxicity at 70.5 h: CC(=O)N1CCC2(CC1)c1ncc(-c3ccccc3)n1CCN2C(C)=O -5.58

Determine its reported cytotoxicity at 70.5 h: COc1ccc(NC(=O)C2OC(c3cccs3)=NN2C(C)=O)cc1OC (centres undefined) 2.61

Determine its reported cytotoxicity at 70.5 h: Cc1ccc2c(c1)CN(C(=O)c1ccncc1)C(CN(C)C)CO2 (centres undefined) -0.528

Determine its reported cytotoxicity at 70.5 h: CNC(=O)c1cc(-c2ccccc2OC)[nH]n1 -5.34

Determine its reported cytotoxicity at 70.5 h: Cc1ccc(C(=O)N2CCc3ncccc3C2)cc1N1CCNC1=O 0.999

Determine its reported cytotoxicity at 70.5 h: O=c1cc(-c2ccc(F)cc2)nc2n1CCCCC2 -14

Determine its reported cytotoxicity at 70.5 h: COC1(CNC(=O)c2ccoc2)CCSC1 (centres undefined) -11

Determine its reported cytotoxicity at 70.5 h: COc1cc(-c2nc3c([nH]2)CCCNC3=O)ccc1O 5.51

Determine its reported cytotoxicity at 70.5 h: COc1ccccc1CCN(C)Cc1nc(N)nc(N(C)C)n1 -11.2

Determine its reported cytotoxicity at 70.5 h: COc1ccc(C2CCCCCN2Cc2cn(C)nc2C)cc1 (centres undefined) -3.41

Determine its reported cytotoxicity at 70.5 h: O=C(c1ccco1)N(CC(F)(F)F)C1CCOCC1 -7.66

Determine its reported cytotoxicity at 70.5 h: C[C@@H]1CN(C(=O)CCCN2CCOCC2)C[C@@]1(O)C1CC1 -5.23

Determine its reported cytotoxicity at 70.5 h: CN(Cc1ccncc1)C1CCC[C@@H]2CN(c3ncccn3)C[C@H]12 (some centres undefined) -2.1

Determine its reported cytotoxicity at 70.5 h: CC(C)C(C)NC(=O)Nc1cccc(OCC#N)c1 (centres undefined) -8.7

Determine its reported cytotoxicity at 70.5 h: CS(=O)(=O)N1CCC2(CCCN(Cc3ccccn3)C2)CC1 10.3

Determine its reported cytotoxicity at 70.5 h: CCS(=O)(=O)NCCCNC(=O)N(C)C(C)c1ccccn1 (centres undefined) -5.57

Determine its reported cytotoxicity at 70.5 h: Cc1ccc(C(=O)N2C[C@@H](C(=O)O)[C@H](c3ccncc3)C2)cc1F -5.6

Determine its reported cytotoxicity at 70.5 h: CCN1C[C@H]2[C@@H](C1)N(c1ncc(F)cn1)CC[C@H]2OC 14.2

Determine its reported cytotoxicity at 70.5 h: COCCN1C(=O)CO[C@H]2CN(Cc3c[nH]nc3-c3ccccc3)C[C@@H]21 -9.3

Determine its reported cytotoxicity at 70.5 h: CC(C)CN1CCCC(c2nc(O)c3cc(F)ccc3n2)C1 (centres undefined) 1.3
